B1: TPR t1 (parent)
chain: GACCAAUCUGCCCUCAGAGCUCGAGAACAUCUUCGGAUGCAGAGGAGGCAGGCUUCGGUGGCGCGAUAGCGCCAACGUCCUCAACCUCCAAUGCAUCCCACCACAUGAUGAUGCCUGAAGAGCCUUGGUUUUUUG

variants of: B1; experiment: polymerase ribozyme fitness, log enrichment relative to wild type (log ratio); higher = more active; in vitro selection for triplet polymerase activity
Label criterion not met if polymerase ribozyme fitness (log ratio) falls below -5; label criterion met in every other case.

MUTATION ANNOTATION: C49G C56G U87A G117A
CLASS LABEL: criterion met
--
MUTATION ANNOTATION: G52U C56G C89U
CLASS LABEL: criterion met
--
MUTATION ANNOTATION: C20U A27C A84U C123A
CLASS LABEL: criterion not met
--
MUTATION ANNOTATION: U9G G39C G42U C64U
CLASS LABEL: criterion met
--
MUTATION ANNOTATION: G63A C115G
CLASS LABEL: criterion met
--
MUTATION ANNOTATION: C13G C22U G63U C79U G122A
CLASS LABEL: criterion not met
--
MUTATION ANNOTATION: G61C C124G
CLASS LABEL: criterion met
--
MUTATION ANNOTATION: U7A C22A C40G A68U A84C G110C
CLASS LABEL: criterion not met
--
MUTATION ANNOTATION: C15G A37C C73G G120C G128U
CLASS LABEL: criterion met
--
MUTATION ANNOTATION: C4A G61A
CLASS LABEL: criterion met
--
MUTATION ANNOTATION: G71A G77A U78G
CLASS LABEL: criterion met
--
MUTATION ANNOTATION: C62G U78C
CLASS LABEL: criterion met
--
MUTATION ANNOTATION: U9G C62U
CLASS LABEL: criterion met
--
MUTATION ANNOTATION: G10C G113C
CLASS LABEL: criterion met
--
MUTATION ANNOTATION: C8U G47C C62U
CLASS LABEL: criterion met
--
MUTATION ANNOTATION: U21G A41U G60C C80U U92C C97A A121U
CLASS LABEL: criterion not met
--
MUTATION ANNOTATION: G48U G71C
CLASS LABEL: criterion met
--
MUTATION ANNOTATION: C40A G63U C79A U130G
CLASS LABEL: criterion met
--
MUTATION ANNOTATION: G60U G93A C98G
CLASS LABEL: criterion not met
--
MUTATION ANNOTATION: U9G C31U C94G
CLASS LABEL: criterion not met
--
MUTATION ANNOTATION: A37C A121U
CLASS LABEL: criterion met
--
MUTATION ANNOTATION: C3U G47A C62U A105U A118G
CLASS LABEL: criterion met
